% inhibition: recorded values
Tested on: HS-PSS
Experiment: % inhibition of CellTiter-Glo viability at highest tested concentration (72 h), relative to DMSO and benzethonium chloride controls; higher = more inhibition
Expressed in %, but write only the number.

These recorded examples may help you get a feel for the data.
| COMPOUND | TARGET SYSTEM | % inhibition, % |
| --- | --- | --- |
| Cc1cc(Nc2cc(CN3CCOCC3)c3nc(C)c(Cc4ccc(Cl)cc4F)n3n2)n[nH]1 [Gandotinib] (max concentration tested 10000 nM) | HS-PSS | 68 |
| CCN(CC)Cc1ccc2cc(COC(=O)Nc3ccc(C(=O)NO)cc3)ccc2c1 [Givinostat] (max concentration tested 1000 nM) | HS-PSS | 69.4 |

Next item in the queue.
Q) Any idea what % inhibition came out for O=C(O)CCCc1ccc(N(CCCl)CCCl)cc1 [Chlorambucil] (max concentration tested 10000 nM) on HS-PSS?
A) 3.62
